targetDesc: CLK4 (Homo sapiens (Human), UniProt Q9HAZ1)
Sequence (Q9HAZ1 whole entry): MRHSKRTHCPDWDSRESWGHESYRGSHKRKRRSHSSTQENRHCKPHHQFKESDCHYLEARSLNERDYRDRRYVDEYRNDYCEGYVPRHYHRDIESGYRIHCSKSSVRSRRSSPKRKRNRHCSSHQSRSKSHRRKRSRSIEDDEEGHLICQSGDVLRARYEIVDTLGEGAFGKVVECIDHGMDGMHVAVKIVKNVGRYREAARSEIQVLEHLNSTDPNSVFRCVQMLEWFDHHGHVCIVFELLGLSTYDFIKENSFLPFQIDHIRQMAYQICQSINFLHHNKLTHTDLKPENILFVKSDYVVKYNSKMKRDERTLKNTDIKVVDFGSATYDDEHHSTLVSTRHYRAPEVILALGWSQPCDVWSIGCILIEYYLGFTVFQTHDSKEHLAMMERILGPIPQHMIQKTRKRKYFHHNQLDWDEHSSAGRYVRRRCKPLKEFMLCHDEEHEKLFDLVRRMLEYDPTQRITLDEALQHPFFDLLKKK
protocolSummary: Inhibition of CLK4 kinase activity evaluated at Nanosyn (ADP-Glo)
Assay type: biochemical
cond: ADP-Glo luminescence
endpointLabel: IC50 (nM)

Take a look at these entries with their results.
In [3]: df
Out[3]:
                                   compound  endpointlabel  experimentalresult
0  Cn1ncc2c1OCCN1CC[C@@H](Oc3ccc(F)cc3/C=C/c3n[nH]c4ccc-2cc34)C1=O           IC50                 0.3
1  C#Cc1nn(C)c2c1-c1ccc3[nH]nc(c3c1)/C=C/c1c(OCC)nn(CCO)c1CN(C)C[C@H](C)O2           IC50                1.36
2  C[C@H]1CN(C)Cc2c(c(OC3CCN(S(C)(=O)=O)CC3)nn2C)/C=C/c2n[nH]c3ccc(cc23)-c2cnn(C)c2O1           IC50                0.61
3  Cc1c2c(nn1C[C@H](C)O)CN(C)C[C@H](C)Oc1c(cnn1C)-c1ccc3[nH]nc(c3c1)/C=C/2           IC50                0.37
4  CCN1Cc2c(c(OC(C)C)nn2C[C@H](C)O)/C=C/c2n[nH]c3cc(F)c(cc23)-c2cnn(C)c2O[C@@H](C)C1           IC50                1.57
5  CC(C)Oc1nn(CCO)c2c1/C=C/c1n[nH]c3ccc(cc13)-c1cnn(C3CC3)c1O[C@@H](C)CN(C)C2           IC50                1.33
6  CCOc1nn(CCO)c2c1/C=C/c1n[nH]c3ccc(cc13)-c1cnn(CC)c1O[C@@H](C)CN(C)C2           IC50                0.77
7  Cc1onc2c1/C=C/c1n[nH]c3ccc(cc13)-c1cnn(C)c1O[C@@H](C)CN(C)C2           IC50                0.61

1 = CCOc1noc2c1/C=C/c1n[nH]c3ccc(cc13)-c1cnn(C)c1O[C@@H](C)CN(C)C2
2 = Cc1nn(C)c2c1/C=C/c1n[nH]c3ccc(cc13)-c1cnn(C)c1O[C@@H](C)CN(C1CC1)C2
Q: Among 1 and 2 , which shows a numerically higher IC50 result? Give the label of your selection.
Ans: 1
(1: 1.83 nM, 2: 0.57 nM)

====

# IC50 per entry for CLK3 (Homo sapiens (Human), UniProt P49761)
endpointLabel: IC50 (nM)

                                smilesinput                                targetdesc  experimentalresult
0  CC(C)Oc1nn(CCO)c2c1/C=C/c1n[nH]c3ccc(cc13)-c1cnn(C)c1O[C@@H](C)CN(C)[C@H]2C  CLK3 (Homo sapiens (Human), UniProt P49761)                 253

P = C[C@H](C#N)Oc1nn(CCO)c2c1/C=C/c1n[nH]c3cc(F)c(cc13)-c1cnn(C)c1O[C@@H](C)CN(C)C2
Q = CCOc1nn([C@@H](C)CO)c2c1/C=C/c1n[nH]c3cc(F)c(cc13)-c1cnn(C)c1O[C@H](C)CN(C(C)C)C2
R = CCn1ncc2c1O[C@@H](C)CN(C)Cc1c(c(OC(C)C)nn1CCO)/C=C/c1n[nH]c3ccc-2cc13
S = CC(C)Oc1nn(CCO)c2c1/C=C/c1n[nH]c3ccc(cc13)-c1cnn(C)c1O[C@@H](C)C(=O)N(C)C2
T = Cc1c2c(nn1C)/C=C/c1n[nH]c3ccc(cc13)-c1cnn(C)c1O[C@@H](C)CN(C)C2
Q: # sort list by recorded IC50, greatest to least Give me the labels in the order the question wants.
Ans: Q, R, T, P, S
(Q: 1000 nM, R: 346 nM, T: 188 nM, P: 45.1 nM, S: 1 nM)

Source of measurements: patent US20250353864A1
